Study Target: α-Glucosidase (Saccharomyces cerevisiae, UniProt P53341)
Construct: purchased Sigma (Sigma-Aldrich) G5003
Sequence (P53341 whole entry): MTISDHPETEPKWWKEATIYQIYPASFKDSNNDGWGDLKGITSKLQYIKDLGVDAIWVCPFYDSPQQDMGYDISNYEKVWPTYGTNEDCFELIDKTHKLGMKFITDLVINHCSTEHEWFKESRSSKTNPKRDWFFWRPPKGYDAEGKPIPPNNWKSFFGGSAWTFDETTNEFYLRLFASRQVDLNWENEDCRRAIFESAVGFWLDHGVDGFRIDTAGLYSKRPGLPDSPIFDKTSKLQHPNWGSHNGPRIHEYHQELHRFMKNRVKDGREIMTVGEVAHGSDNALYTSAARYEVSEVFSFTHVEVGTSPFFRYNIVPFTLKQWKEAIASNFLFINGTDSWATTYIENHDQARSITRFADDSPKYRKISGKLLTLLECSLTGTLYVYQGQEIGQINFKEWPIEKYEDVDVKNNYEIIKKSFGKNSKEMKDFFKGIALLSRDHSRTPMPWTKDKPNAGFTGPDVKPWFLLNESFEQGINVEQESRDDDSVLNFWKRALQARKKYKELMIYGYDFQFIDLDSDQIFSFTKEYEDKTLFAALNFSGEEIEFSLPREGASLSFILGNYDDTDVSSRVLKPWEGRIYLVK
Protocol Notes: biochemical
Property: IC50 (µM)
// return numeric value only (unit: µM, not printed)

C=C(C)[C@@H]1CC[C@]2(C(=O)O)CC[C@]3(C)[C@H](CC[C@@H]4[C@@]5(C)CCC(=O)C(C)(C)[C@@H]5CC[C@]43C)[C@@H]12 17.2

Which IC50 is listed for C=C(C)[C@@H]1CC[C@]2(C)CC[C@]3(C)[C@H](CC[C@@H]4[C@@]5(C)CC[C@H](O)C(C)(C)[C@@H]5CC[C@]43C)[C@@H]12 ?
19.2

###

Study Target: α-Glucosidase (Saccharomyces cerevisiae)
Construct: purchased Sigma (Sigma-Aldrich) G5003
Protocol Notes: biochemical
Study Conditions: concentration 8.0 μg·mL-1; read-out: α-glucosidase inhibition rate
Listed molecules paired with reported inhibition at 8 µg/mL

Here are 4 molecules together with their reported answers.
Molecule	inhibition at 8 µg/mL
C=C(C)[C@@H]1CC[C@]2(C)CC[C@]3(C)[C@H](CC[C@@H]4[C@@]5(C)CC[C@H](O)C(C)(C)[C@@H]5CC[C@]43C)[C@@H]12	49.2%
CC(C)(O)[C@@H]1CC[C@]2(C)CC[C@]3(C)[C@H](CC[C@@H]4[C@@]5(C)CC[C@H](O)C(C)(C)[C@@H]5CC[C@]43C)[C@@H]12	3.4%
CC(=O)O[C@H]1CC[C@]2(C)[C@H]3CC[C@@H]4[C@@H]([C@@](C)(O)CCC=C(C)C)CC[C@@]4(C)[C@]3(C)CC[C@H]2C1(C)C [Compound 8, dammar-24-ene-3β-acetoxy-20S-ol]	10.2%
CC(C)(O)[C@@H]1CC[C@]2(C)CC[C@]3(C)[C@H](CC[C@@H]4[C@@]5(C)CCC(=O)C(C)(C)[C@@H]5CC[C@]43C)[C@@H]12 [Compound 5, 20-hydroxy-lupan-3-one]	13.4%

Now let's try a different one.
What value of measured inhibition at 8 µg/mL is listed for C=C(C)[C@@H]1CC[C@]2(C(=O)O)CC[C@]3(C)[C@H](CC[C@@H]4[C@@]5(C)CCC(=O)C(C)(C)[C@@H]5CC[C@]43C)[C@@H]12 ?
51.7%

###

Each entry below carries its reported inhibition at 8 µg/mL.
Study Target: α-Glucosidase (Saccharomyces cerevisiae, UniProt P53341);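 also: yeast α-glucosidase premixed with inhibitor in phosphate buffer for 15 min at 37 °C, then a further 15 min reaction with p-NPG substrate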
Construct: purchased Sigma (Sigma-Aldrich) G5003
Protocol Notes: biochemical
Study Conditions: read-out: α-glucosidase inhibition rate
Quick reminder: number only, in %, skip the unit.

Previously resolved entries follow.
Molecule	Property	Reported Value
CCC(CC[C@@H](C)[C@H]1CC[C@H]2[C@@H]3CCC4=CC(=O)CC[C@]4(C)[C@H]3CC[C@]12C)C(C)C (stereo partly drawn) [Compound 9, (20R)-24-ethylcholest-4-en-3-one]	inhibition at 8 µg/mL	15.6
CC[C@H](/C=C/[C@@H](C)[C@H]1CC[C@H]2[C@@H]3CC=C4C[C@@H](O)CC[C@]4(C)[C@H]3CC[C@]12C)C(C)C	inhibition at 8 µg/mL	9.6
CC(=O)O[C@H]1CC[C@]2(C)[C@H]3CC=C4[C@@H]5CC(C)(C)CC[C@]5(C(=O)O)CC[C@@]4(C)[C@]3(C)CC[C@H]2C1(C)C	inhibition at 8 µg/mL	48.3

# input molecule: C[C@H]1O[C@H](O[C@H]2[C@H](O)[C@@H](O)[C@@H](O[C@H]3[C@H](O)[C@@H](O)C(O)O[C@@H]3CO)O[C@@H]2CO)[C@H](O)[C@@H](O)[C@@H]1N[C@H]1C=C(CO)[C@@H](O)[C@H](O)[C@H]1O (stereo partly shown) [acarbose, reference compound] ; wanted: its inhibition at 8 µg/mL
52.4
